# test-system: human ether-à-go-go-related gene (hERG) potassium channel (human);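 further: peak tail current of the secondary pulse compared with the same well before compound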
# test: primary screen, population patch clamp on CHO cells stably expressing hERG; higher = less effect of the substance
In all, about 310,000 compounds went through this assay and about 14,000 (4.5%) showed an effect of 50% or more. The effect is printed as a negative number. This excerpt belongs to a sample that is enriched for strong results.
measurement-type: hERG current change (%, negative = inhibition) at 10uM (%)

smiles-string	test-system	measured-value
O=[N+]([O-])c1ccc(CSc2ccc(S(=O)(=O)N3CCCC3)cn2)cc1	human ether-à-go-go-related gene (hERG) potassium channel (human)	-32.6
CCCN1CCN(C(=O)c2ccc3nc(CC)c(CC)nc3c2)CC1	human ether-à-go-go-related gene (hERG) potassium channel (human)	1.54
COC(=O)c1sc(S(=O)(=O)NCc2cccs2)c(C(=O)OC)c1C	human ether-à-go-go-related gene (hERG) potassium channel (human)	-19.1
CCCOc1ccc(-c2nc(=S)[nH][nH]2)cc1	human ether-à-go-go-related gene (hERG) potassium channel (human)	20.1
COC(=O)c1sc(S(=O)(=O)NCc2ccccc2)c(C(=O)OC)c1C	human ether-à-go-go-related gene (hERG) potassium channel (human)	-50.4
CC(C)Cn1c(N)c(C(=O)COC(=O)[C@@H]2CCCN2C(=O)c2cccs2)c(=O)n(C)c1=O	human ether-à-go-go-related gene (hERG) potassium channel (human)	-8.74
CS(=O)(=O)Nc1ccc2c(c1)ncn2CCc1ccccc1	human ether-à-go-go-related gene (hERG) potassium channel (human)	-26.4
COc1ccc(-n2c(N)c(C(=O)NCc3ccco3)c3nc4ccccc4nc32)cc1OC	human ether-à-go-go-related gene (hERG) potassium channel (human)	16.7
COC(=O)c1c(S(=O)(=O)NCc2ccccc2)sc(C(=O)O)c1C	human ether-à-go-go-related gene (hERG) potassium channel (human)	6.81
CN(C)Cc1c(-c2ccc(Cl)cc2)nc2ccccn12	human ether-à-go-go-related gene (hERG) potassium channel (human)	0.0702

* * *

# test-system: human ether-à-go-go-related gene (hERG) potassium channel (human, UniProt Q12809);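 further: peak tail current of the secondary pulse compared with the same well before compound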
# Sequence (Q12809 whole entry, looked up): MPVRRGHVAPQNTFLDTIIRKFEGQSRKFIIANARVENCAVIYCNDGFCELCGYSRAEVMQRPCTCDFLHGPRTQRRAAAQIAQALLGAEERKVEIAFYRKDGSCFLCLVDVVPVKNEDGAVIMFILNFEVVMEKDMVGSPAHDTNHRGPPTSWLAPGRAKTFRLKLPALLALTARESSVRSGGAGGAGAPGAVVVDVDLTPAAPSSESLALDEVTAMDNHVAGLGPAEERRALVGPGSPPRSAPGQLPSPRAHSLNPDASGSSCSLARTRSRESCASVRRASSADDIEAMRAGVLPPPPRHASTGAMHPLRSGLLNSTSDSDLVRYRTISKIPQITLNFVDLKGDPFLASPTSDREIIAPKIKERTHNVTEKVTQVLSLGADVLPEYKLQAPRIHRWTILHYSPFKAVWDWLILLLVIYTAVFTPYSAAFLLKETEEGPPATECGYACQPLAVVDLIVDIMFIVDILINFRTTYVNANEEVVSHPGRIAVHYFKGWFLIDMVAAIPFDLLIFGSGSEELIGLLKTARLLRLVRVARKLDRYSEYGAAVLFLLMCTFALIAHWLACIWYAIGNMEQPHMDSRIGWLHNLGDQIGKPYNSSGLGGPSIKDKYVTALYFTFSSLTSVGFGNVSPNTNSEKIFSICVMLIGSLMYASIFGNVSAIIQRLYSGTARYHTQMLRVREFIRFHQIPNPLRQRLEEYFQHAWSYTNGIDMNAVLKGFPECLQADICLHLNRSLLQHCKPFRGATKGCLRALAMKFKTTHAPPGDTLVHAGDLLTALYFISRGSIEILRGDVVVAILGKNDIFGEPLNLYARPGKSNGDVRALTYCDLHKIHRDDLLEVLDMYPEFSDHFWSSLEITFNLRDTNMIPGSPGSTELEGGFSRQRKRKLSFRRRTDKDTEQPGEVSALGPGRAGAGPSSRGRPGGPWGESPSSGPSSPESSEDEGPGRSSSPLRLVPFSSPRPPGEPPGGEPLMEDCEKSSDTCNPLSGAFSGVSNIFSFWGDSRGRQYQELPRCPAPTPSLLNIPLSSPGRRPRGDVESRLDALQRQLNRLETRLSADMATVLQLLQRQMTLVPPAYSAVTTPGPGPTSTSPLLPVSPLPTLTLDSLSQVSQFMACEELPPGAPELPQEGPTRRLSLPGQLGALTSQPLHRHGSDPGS
# test: primary screen, population patch clamp on CHO cells stably expressing hERG; higher = less effect of the substance
The campaign covered roughly 310,000 compounds. About 14,000 (4.5%) showed an effect of 50% or more. Effects have a minus sign here. Many of the other results were omitted from the sample, so strong results are more common in it than they were.
This section presents compounds with their documented hERG current change (%, negative = inhibition) at 10uM values.
measurement-type: hERG current change (%, negative = inhibition) at 10uM (%)

compound	test-system	units-text	measured-value
CCn1c(SCC(=O)Nc2ccc(C(C)=O)cc2)nc2c([nH]c3ccccc32)c1=O	human ether-à-go-go-related gene (hERG) potassium channel (human, UniProt Q12809)	%	5.85
COC(=O)c1ccccc1C(=O)N(Cc1cccnc1)CC1CCCN(C2CCCCC2)C1 (centres unmarked)	human ether-à-go-go-related gene (hERG) potassium channel (human, UniProt Q12809)	%	-40
CCC(Oc1ccccc1)C(=O)N(Cc1ccccc1)c1ccccn1 (centres unmarked)	human ether-à-go-go-related gene (hERG) potassium channel (human, UniProt Q12809)	%	-6.96
Cc1ccccc1Nc1ncnc2c1cnn2Cc1ccccc1	human ether-à-go-go-related gene (hERG) potassium channel (human, UniProt Q12809)	%	-10.8
CCOC(=O)CN1C(=O)COc2ccc(Cl)cc21	human ether-à-go-go-related gene (hERG) potassium channel (human, UniProt Q12809)	%	19.2
Cc1c(CC(=O)NCCCC(=O)O)c(=O)oc2cc3c(cc12)CCC(C)(C)O3	human ether-à-go-go-related gene (hERG) potassium channel (human, UniProt Q12809)	%	-64.5
O=S(=O)(Nc1nc(CN2CCOCC2)nc2sc3c(c12)CCCC3)c1cc(F)ccc1F	human ether-à-go-go-related gene (hERG) potassium channel (human, UniProt Q12809)	%	-34.9
COc1ccc(N(C(C)C(=O)NCCSCc2cccc(Cl)c2)S(C)(=O)=O)cc1 (centres unmarked)	human ether-à-go-go-related gene (hERG) potassium channel (human, UniProt Q12809)	%	-13.3
Cl.O=C1c2cccc3cccc(c23)C(=O)N1CCN1CCN(CC(O)COCc2ccc(Cl)cc2)CC1 (centres unmarked)	human ether-à-go-go-related gene (hERG) potassium channel (human, UniProt Q12809)	%	-72.5
CCNS(=O)(=O)c1ccc(CCC(=O)NCc2ccccn2)cc1	human ether-à-go-go-related gene (hERG) potassium channel (human, UniProt Q12809)	%	13.5
CCOC(=O)/C(=N\Nc1ncnc2ccccc12)c1ccc(OC)cc1	human ether-à-go-go-related gene (hERG) potassium channel (human, UniProt Q12809)	%	15
CN1CCC(=NNC(=O)c2cc(-c3ccc(Cl)cc3)n[nH]2)CC1	human ether-à-go-go-related gene (hERG) potassium channel (human, UniProt Q12809)	%	-16.4
CC(C)CC(N)c1cn([C@@H](CCC(=O)O)C(=O)N2CCNCC2)nn1.Cl (some centres unmarked)	human ether-à-go-go-related gene (hERG) potassium channel (human, UniProt Q12809)	%	17.2
COc1cc(COCC(O)CN2CCN(Cc3ccccc3)CC2)cc(OC)c1OC.Cl (centres unmarked)	human ether-à-go-go-related gene (hERG) potassium channel (human, UniProt Q12809)	%	-39.1
COc1ccccc1C1CCN(c2ccc(CO)cc2[N+](=O)[O-])CC1	human ether-à-go-go-related gene (hERG) potassium channel (human, UniProt Q12809)	%	4.52
COc1cc(COCC(O)CN2CCN(CCN3C(=O)c4cccc5cccc(c45)C3=O)CC2)cc(OC)c1OC.Cl (centres unmarked)	human ether-à-go-go-related gene (hERG) potassium channel (human, UniProt Q12809)	%	-62
CCO.CCOC(=O)c1c(-c2ccccc2)oc2ccc(OC(C)C(=O)O)cc12 (centres unmarked)	human ether-à-go-go-related gene (hERG) potassium channel (human, UniProt Q12809)	%	-15
CC[C@]12C=CCN3CCC4(c5cc(Br)c(OC)cc5N(C)C4[C@@](O)(C(=O)OC)[C@@H]1OC(C)=O)C32 (some centres unmarked)	human ether-à-go-go-related gene (hERG) potassium channel (human, UniProt Q12809)	%	7.6
CCCC(O)(CCC)C(=O)NNc1ccccc1	human ether-à-go-go-related gene (hERG) potassium channel (human, UniProt Q12809)	%	12.4
O=c1c2cc(N3CCOCC3)ccc2[nH]c(=S)n1CCCN1CCCCCC1	human ether-à-go-go-related gene (hERG) potassium channel (human, UniProt Q12809)	%	-17
Clc1nc(CN2CCCCC2)nc2sc3c(c12)CCC3	human ether-à-go-go-related gene (hERG) potassium channel (human, UniProt Q12809)	%	-33.6
COc1ccc(C(C)=O)cc1Cn1nc(C)c([N+](=O)[O-])c1C	human ether-à-go-go-related gene (hERG) potassium channel (human, UniProt Q12809)	%	18.5
Cc1c(CC(=O)NCCCCCC(=O)O)c(=O)oc2cc3c(cc12)CCC(C)(C)O3	human ether-à-go-go-related gene (hERG) potassium channel (human, UniProt Q12809)	%	9.83
Cc1ccc(S(=O)(=O)N2[C@@H](c3ccccc3)C(C(=O)O)=CC[C@H]2c2ccc(Cl)cc2)cc1	human ether-à-go-go-related gene (hERG) potassium channel (human, UniProt Q12809)	%	18.6
Clc1nc(CN2CCOCC2)nc2sc3c(c12)CCC3	human ether-à-go-go-related gene (hERG) potassium channel (human, UniProt Q12809)	%	14.5
O=C1c2ccccc2C(=O)N1CC(O)COCc1ccccc1 (centres unmarked)	human ether-à-go-go-related gene (hERG) potassium channel (human, UniProt Q12809)	%	19.4
COc1cc(/C=N/Nc2cccc(C)c2)ccc1OC(=O)c1ccco1	human ether-à-go-go-related gene (hERG) potassium channel (human, UniProt Q12809)	%	23.4
O=C(Nc1ccnn1C1CCN(C/C=C/c2ccc(F)cc2)CC1)C1CCCC1	human ether-à-go-go-related gene (hERG) potassium channel (human, UniProt Q12809)	%	-76.2
O=C(CCc1nnc(CCCCc2ccccc2)o1)NCCCc1cccnc1	human ether-à-go-go-related gene (hERG) potassium channel (human, UniProt Q12809)	%	-14.8
CC(=O)N(Cc1cccnc1)Cc1cc2ccccc2[nH]c1=O	human ether-à-go-go-related gene (hERG) potassium channel (human, UniProt Q12809)	%	3.63
C/C=C(\C)C(=O)OC1C(C)=C2C(C1OC(=O)CCCCC)C(C)(OC(C)=O)CC(OC(=O)CCC)C1(O)C2OC(=O)C1(C)O (centres unmarked)	human ether-à-go-go-related gene (hERG) potassium channel (human, UniProt Q12809)	%	-6.49
O=C(c1cc2ccccc2[nH]1)N(Cc1cccnc1)CC1CCCN(C2CCCCC2)C1 (centres unmarked)	human ether-à-go-go-related gene (hERG) potassium channel (human, UniProt Q12809)	%	-73.7
Cc1ccc(NC2CCCN(C(=O)c3ccccc3N3CCOCC3)C2)cc1C (centres unmarked)	human ether-à-go-go-related gene (hERG) potassium channel (human, UniProt Q12809)	%	-0.641
O=C(Nc1ccnn1C1CCN(C/C=C/c2ccccc2)CC1)C1CCCC1	human ether-à-go-go-related gene (hERG) potassium channel (human, UniProt Q12809)	%	-73
O=C(c1cccs1)N(CCN1CCCCC1)CC1CCCN(C2CCCC2)C1 (centres unmarked)	human ether-à-go-go-related gene (hERG) potassium channel (human, UniProt Q12809)	%	1.03
COc1cc2c(cc1OC)CN(c1nc(CN3CCCCC3)nc3sc4c(c13)CCCC4)CC2	human ether-à-go-go-related gene (hERG) potassium channel (human, UniProt Q12809)	%	-81.2
Cc1ccc(OCc2cc(C(=O)N3CCN(c4ccccc4)CC3)no2)cc1C	human ether-à-go-go-related gene (hERG) potassium channel (human, UniProt Q12809)	%	-0.317
CC(=O)N1c2ccc(S(=O)(=O)NC(CC(=O)O)c3ccc(Br)cc3)cc2CC1C (centres unmarked)	human ether-à-go-go-related gene (hERG) potassium channel (human, UniProt Q12809)	%	22.3

Data provenance is paper PMC4336329.
